Assay: AUC in rat at 5 mg/kg, po or 1 mg/kg, iv
Type: ADME, organism-based
Parameters: dose 5 mg/kg
Details: in vivo
For each of the compounds below, state its AUC.
Give bare numbers, in µM·h.

smiles record | readout kind | unit abbrev | measured value
C=C[C@@H]1C[C@]1(NC(=O)[C@@H]1C[C@@H](Oc2ncc(OC)c3ccc(Cl)cc23)CN1C(=O)[C@@H](NC(=O)OC(C)(C)C)C(C)(C)C)C(=O)NS(=O)(=O)C1CC1 | AUC | µM·h | 1.2
CC[C@@H]1C[C@H](C)CC/C=C\[C@@H]2C[C@@]2(C(=O)NS(=O)(=O)C2(C)CC2)NC(=O)[C@@H]2C[C@@H](Oc3nccc4cc(OC)c(F)cc34)CN2C(=O)[C@H]1NC(=O)OC(C)(C)C(F)(F)F | AUC | µM·h | 241
[2H]C([2H])([2H])Oc1cc2ccnc(O[C@@H]3C[C@H]4C(=O)N[C@]5(C(=O)NS(=O)(=O)C6(C)CC6)C[C@H]5/C=C\CC[C@@H](C)C[C@@H](CC)[C@H](NC(=O)OC(C)(C)C(F)(F)F)C(=O)N4C3)c2cc1F | AUC | µM·h | 310

Attention now shifts to the item below.
Tell me its AUC given CC[C@@H]1C[C@H](C)CC/C=C\[C@@H]2C[C@@]2(C(=O)NS(=O)(=O)C2(C)CC2)NC(=O)[C@@H]2C[C@@H](Oc3ncc(OC)c4ccc(F)cc34)CN2C(=O)[C@H]1NC(=O)OC(C)(C)C(F)(F)F as the entry.
37

Numbers sourced from ChEMBL document CHEMBL4765464.
